Target: PKN1 (human)
Assay: split-luciferase competition binding
Conditions: compound 10.0 µM
Property name: inhibition
Include the unit right after the number.

O=C(c1ccc(Nc2nccc(-c3cc4ccccc4s3)n2)cc1)N1CCC(N2CCCC2)CC1 : 0%
COc1cc2nccc(Oc3ccc(NC(=O)Nc4ccc(F)cc4F)c(F)c3)c2cc1OC : 10%
COc1cc2ncnc(Nc3ccc(Cl)cc3F)c2cc1OC : 1%
CCN(CC)CCCCN1c2ccccc2Oc2ccc(Cl)cc21 : 6%
NC(=O)Nc1sc(-c2ccc(F)cc2)cc1C(N)=O : 0%
CCN(CC)CCNC(=O)c1c(C)[nH]c(/C=C2\C(=O)Nc3ccc(F)cc32)c1C : 0%

Each of the following entries comes with a recorded value; kindly state inhibition for each.
1. CN(C)CCCn1cc(C2=C(c3c[nH]c4ccccc34)C(=O)NC2=O)c2ccccc21
2. COc1cc2c(Nc3ccc(NC(=O)c4ccccc4)cc3)ncnc2cc1OCCCN1CCOCC1
3. NC(=O)c1ccc(-c2nc(-c3ccccn3)c(-c3ccc4c(c3)OCCO4)[nH]2)cc1
4. O=S(=O)(c1cccc2c(Cl)cccc12)N1CCCNCC1
5. Cc1ccc(-c2nn(C(C)(C)C)c3ncnc(N)c23)cc1

["5%", "2%", "0%", "1%", "0%"]

Batch: inhibition for all items listed.
1. CC(C)[C@H](CO)Nc1nc(Nc2cc(N)cc(Cl)c2)c2ncn(C(C)C)c2n1
2. Nc1ccc(-c2cccc3c(=O)cc(N4CCOCC4)oc23)cc1
3. O=C1NC(=O)c2c1c1c3ccccc3[nH]c1c1[nH]c3ccccc3c21

1: 0%; 2: 0%; 3: 0%

List the reported inhibition of each compound below.
1. CC(=O)c1c(O)c(C)c(O)c(Cc2c(O)c3c(c(C(=O)/C=C/c4ccccc4)c2O)OC(C)(C)C=C3)c1O
2. Fc1ccc(Cl)cc1-c1nc(Nc2ccncc2)c2nccnc2n1
3. CC(C)(C)n1nc(-c2ccc(Cl)cc2)c2c(N)ncnc21
4. CC(C)(C)n1nc(-c2cccc3ccccc23)c2c(N)ncnc21
5. COc1cc2ncnc(Nc3ccc(F)c(Cl)c3)c2cc1OCCCN1CCOCC1

0%
0%
0%
0%
0%
